- assay_details: Phase I first-in-human study, pharmacokinetics after single ascending subcutaneous doses in healthy volunteers
- Assay type: in vivo
- measurement_setup: human, plasma; single SC dose 4 mg; nominal time 3 h; mean; read-out: Plasma Concentration AXN-001
Bridge positions count the residues as written; N and C are the ends. Square brackets hold non-standard residues; d marks the D form. Peptide text beside a SMILES is read from it. * marks the point of attachment. Phe(2-CONH2) = NC(=O)c1ccccc1C[C@H](N)C(=O)O; Orn(iPr) = CC(C)NCCC[C@H](N)C(=O)O; Oxazole2carbonyl = O=C(c1ncco1)*; 3Pal = N[C@@H](Cc1cccnc1)C(=O)O

| molecule | level at 3 h, ng/mL |
| --- | --- |
| CC(C)NCCC[C@@H]1NC(=O)[C@@H](NC(=O)[C@H](Cc2ccccc2C(N)=O)NC(=O)[C@H](NC(=O)c2ncco2)C(C)C)CSSC[C@@H](C(=O)N[C@@H](Cc2cccnc2)C(N)=O)NC(=O)[C@H](Cc2ccccc2)NC(=O)[C@@H]2CCCN2C(=O)CNC(=O)[C@H](C(C)C)NC(=O)[C@H](CC(=O)O)NC1=O [AXN-001] (Oxazole2carbonyl-[dV][Phe(2-CONH2)]C[Orn(iPr)]DVGPFC[3Pal]-NH2; disulfide 3-10) | 44.7 |

====

- assay_details: Phase I first-in-human study, pharmacokinetics after single ascending subcutaneous doses in healthy volunteers
- Format: in vivo
- measurement_setup: human, plasma; single SC dose 4 mg; mean
Bridge positions count the residues as written; N and C are the ends. Square brackets hold non-standard residues; d marks the D form. Peptide text beside a SMILES is read from it. * marks the point of attachment. Phe(2-CONH2) = NC(=O)c1ccccc1C[C@H](N)C(=O)O; Orn(iPr) = CC(C)NCCC[C@H](N)C(=O)O; Oxazole2carbonyl = O=C(c1ncco1)*; 3Pal = N[C@@H](Cc1cccnc1)C(=O)O
quantity_measured: Cmax (ng/mL)

| compound | units_of_measure | numeric_result |
| --- | --- | --- |
| CC(C)NCCC[C@@H]1NC(=O)[C@@H](NC(=O)[C@H](Cc2ccccc2C(N)=O)NC(=O)[C@H](NC(=O)c2ncco2)C(C)C)CSSC[C@@H](C(=O)N[C@@H](Cc2cccnc2)C(N)=O)NC(=O)[C@H](Cc2ccccc2)NC(=O)[C@@H]2CCCN2C(=O)CNC(=O)[C@H](C(C)C)NC(=O)[C@H](CC(=O)O)NC1=O [AXN-001] (Oxazole2carbonyl-[dV][Phe(2-CONH2)]C[Orn(iPr)]DVGPFC[3Pal]-NH2; disulfide 3-10) | ng/mL | 133 |

====

- assay_details: Phase I first-in-human study, pharmacokinetics after single ascending subcutaneous doses in healthy volunteers
- Type: in vivo
- measurement_setup: human, plasma; single SC dose 2 mg; nominal time 3 h; mean; read-out: Plasma Concentration AXN-001
Bridge positions count the residues as written; N and C are the ends. Square brackets hold non-standard residues; d marks the D form. Peptide text beside a SMILES is read from it. * marks the point of attachment. Phe(2-CONH2) = NC(=O)c1ccccc1C[C@H](N)C(=O)O; Orn(iPr) = CC(C)NCCC[C@H](N)C(=O)O; Oxazole2carbonyl = O=C(c1ncco1)*; 3Pal = N[C@@H](Cc1cccnc1)C(=O)O
quantity_measured: level at 3 h (ng/mL)

| compound | numeric_result |
| --- | --- |
| CC(C)NCCC[C@@H]1NC(=O)[C@@H](NC(=O)[C@H](Cc2ccccc2C(N)=O)NC(=O)[C@H](NC(=O)c2ncco2)C(C)C)CSSC[C@@H](C(=O)N[C@@H](Cc2cccnc2)C(N)=O)NC(=O)[C@H](Cc2ccccc2)NC(=O)[C@@H]2CCCN2C(=O)CNC(=O)[C@H](C(C)C)NC(=O)[C@H](CC(=O)O)NC1=O [AXN-001] (Oxazole2carbonyl-[dV][Phe(2-CONH2)]C[Orn(iPr)]DVGPFC[3Pal]-NH2; disulfide 3-10) | 21.3 |

====

- assay_details: Phase I first-in-human study, pharmacokinetics after single ascending subcutaneous doses in healthy volunteers
- Type: in vivo
- measurement_setup: human, plasma; single SC dose 4 mg; nominal time 0.50 h; mean; read-out: Plasma Concentration AXN-001
Bridge positions count the residues as written; N and C are the ends. Square brackets hold non-standard residues; d marks the D form. Peptide text beside a SMILES is read from it. * marks the point of attachment. Phe(2-CONH2) = NC(=O)c1ccccc1C[C@H](N)C(=O)O; Orn(iPr) = CC(C)NCCC[C@H](N)C(=O)O; Oxazole2carbonyl = O=C(c1ncco1)*; 3Pal = N[C@@H](Cc1cccnc1)C(=O)O

| compound | level at 0.5 h |
| --- | --- |
| CC(C)NCCC[C@@H]1NC(=O)[C@@H](NC(=O)[C@H](Cc2ccccc2C(N)=O)NC(=O)[C@H](NC(=O)c2ncco2)C(C)C)CSSC[C@@H](C(=O)N[C@@H](Cc2cccnc2)C(N)=O)NC(=O)[C@H](Cc2ccccc2)NC(=O)[C@@H]2CCCN2C(=O)CNC(=O)[C@H](C(C)C)NC(=O)[C@H](CC(=O)O)NC1=O [AXN-001] (Oxazole2carbonyl-[dV][Phe(2-CONH2)]C[Orn(iPr)]DVGPFC[3Pal]-NH2; disulfide 3-10) | 115 ng/mL |

====

- assay_details: Phase I first-in-human study, pharmacokinetics after single ascending subcutaneous doses in healthy volunteers
- Type: in vivo
- measurement_setup: human, plasma; single SC dose 2 mg; mean
Bridge positions count the residues as written; N and C are the ends. Square brackets hold non-standard residues; d marks the D form. Peptide text beside a SMILES is read from it. * marks the point of attachment. Phe(2-CONH2) = NC(=O)c1ccccc1C[C@H](N)C(=O)O; Orn(iPr) = CC(C)NCCC[C@H](N)C(=O)O; Oxazole2carbonyl = O=C(c1ncco1)*; 3Pal = N[C@@H](Cc1cccnc1)C(=O)O

| compound | Tmax, min |
| --- | --- |
| CC(C)NCCC[C@@H]1NC(=O)[C@@H](NC(=O)[C@H](Cc2ccccc2C(N)=O)NC(=O)[C@H](NC(=O)c2ncco2)C(C)C)CSSC[C@@H](C(=O)N[C@@H](Cc2cccnc2)C(N)=O)NC(=O)[C@H](Cc2ccccc2)NC(=O)[C@@H]2CCCN2C(=O)CNC(=O)[C@H](C(C)C)NC(=O)[C@H](CC(=O)O)NC1=O [AXN-001] (Oxazole2carbonyl-[dV][Phe(2-CONH2)]C[Orn(iPr)]DVGPFC[3Pal]-NH2; disulfide 3-10) | 47.5 |

====

- assay_details: Phase I first-in-human study, pharmacokinetics after single ascending subcutaneous doses in healthy volunteers
- Assay type: in vivo
- measurement_setup: human, plasma; single SC dose 8 mg; nominal time 3 h; mean; read-out: Plasma Concentration AXN-001
Bridge positions count the residues as written; N and C are the ends. Square brackets hold non-standard residues; d marks the D form. Peptide text beside a SMILES is read from it. * marks the point of attachment. Phe(2-CONH2) = NC(=O)c1ccccc1C[C@H](N)C(=O)O; Orn(iPr) = CC(C)NCCC[C@H](N)C(=O)O; Oxazole2carbonyl = O=C(c1ncco1)*; 3Pal = N[C@@H](Cc1cccnc1)C(=O)O

| molecule | level at 3 h (ng/mL) |
| --- | --- |
| CC(C)NCCC[C@@H]1NC(=O)[C@@H](NC(=O)[C@H](Cc2ccccc2C(N)=O)NC(=O)[C@H](NC(=O)c2ncco2)C(C)C)CSSC[C@@H](C(=O)N[C@@H](Cc2cccnc2)C(N)=O)NC(=O)[C@H](Cc2ccccc2)NC(=O)[C@@H]2CCCN2C(=O)CNC(=O)[C@H](C(C)C)NC(=O)[C@H](CC(=O)O)NC1=O [AXN-001] (Oxazole2carbonyl-[dV][Phe(2-CONH2)]C[Orn(iPr)]DVGPFC[3Pal]-NH2; disulfide 3-10) | 72 |

====

- assay_details: Phase I first-in-human study, pharmacokinetics after single ascending subcutaneous doses in healthy volunteers
- Assay type: in vivo
- measurement_setup: human, plasma; single SC dose 2 mg; nominal time 4 h; mean; read-out: Plasma Concentration AXN-001
Bridge positions count the residues as written; N and C are the ends. Square brackets hold non-standard residues; d marks the D form. Peptide text beside a SMILES is read from it. * marks the point of attachment. Phe(2-CONH2) = NC(=O)c1ccccc1C[C@H](N)C(=O)O; Orn(iPr) = CC(C)NCCC[C@H](N)C(=O)O; Oxazole2carbonyl = O=C(c1ncco1)*; 3Pal = N[C@@H](Cc1cccnc1)C(=O)O

| compound | level at 4 h / µg/mL |
| --- | --- |
| CC(C)NCCC[C@@H]1NC(=O)[C@@H](NC(=O)[C@H](Cc2ccccc2C(N)=O)NC(=O)[C@H](NC(=O)c2ncco2)C(C)C)CSSC[C@@H](C(=O)N[C@@H](Cc2cccnc2)C(N)=O)NC(=O)[C@H](Cc2ccccc2)NC(=O)[C@@H]2CCCN2C(=O)CNC(=O)[C@H](C(C)C)NC(=O)[C@H](CC(=O)O)NC1=O [AXN-001] (Oxazole2carbonyl-[dV][Phe(2-CONH2)]C[Orn(iPr)]DVGPFC[3Pal]-NH2; disulfide 3-10) | 0.0114 |
